# Test system: DERL-7 (IL-2 2.5 ng/mL);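 also: normalised to DMSO-only wells as negative and benzethonium chloride as positive control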
# methodNotes: percent inhibition of viability; higher = more inhibition
# measurementParameters: 72 h; 100 nM
Overview of recorded percent inhibition of viability for various molecules
reportedMetric: percent inhibition of viability (%)

* CNC(=O)c1ccc(N2C(=S)N(c3ccc(C#N)c(C(F)(F)F)c3)C(=O)C2(C)C)cc1F [Enzalutamide] (max concentration tested 10000 nM) | -9.3
* COc1cc([C@@H]2c3cc4c(cc3[C@@H](O[C@@H]3O[C@@H]5CO[C@@H](c6cccs6)O[C@H]5[C@H](O)[C@H]3O)[C@H]3COC(=O)[C@H]23)OCO4)cc(OC)c1O [Teniposide] (max concentration tested 10000 nM) | 94.9
* COCC1(CO)C(=O)C2CCN1CC2 (stereo unspecified) [APR-246] (max concentration tested 10000 nM) | 4.99
* Cn1c(=O)c(F)c(Nc2ccc(I)cc2F)c2c(=O)n(C[C@@H](O)CO)cnc21 [TAK-733] (max concentration tested 1000 nM) | 41.5
* O=C1NC(=O)/C(=C/c2ccc3nccc(-c4ccncc4)c3c2)S1 (max concentration tested 10000 nM) | 9.03
* COc1cc2c(cc1O)CC[C@@H]1[C@@H]2CC[C@]2(C)[C@@H](O)CC[C@@H]12 [2-methoxyestradiol] (max concentration tested 10000 nM) | 2.89
